Ref: patent US20250051279A1

- MEASUREMENT_PROTOCOL: Salt form assessment (crystallization propensity, DSC/XRPD physical properties, appearance, counter-ion acceptability, salt suitability)
- Assay type: physicochemical
- Parameters: key: “+/+/+” indicates most favorable; “+/+” indicates more favorable; “+” indicates favorable; “−” indicates unfavorable; “−/−” indicates more unfavorable; “−/−/−” indicates most unfavorable
- CONDITIONS_USED: DSC, XRPD
QUANTITY_NAME: Physical properties (crystallinity, melt, enthalpy, polymorph tendency)

See these solved cases before continuing.
{"MOLECULE": "CN(C)CCc1c[nH]c2ccccc12 [Example 5]", "VALUE_REPORTED": "+/+"}
{"MOLECULE": "CN(C)CCc1c[nH]c2ccccc12 [Example 6]", "VALUE_REPORTED": "+/+"}
{"MOLECULE": "CN(C)CCc1c[nH]c2ccccc12 [Example 1]", "VALUE_REPORTED": "+/+/+"}
{"MOLECULE": "CN(C)CCc1c[nH]c2ccccc12 [Example 3]", "VALUE_REPORTED": "+/+/+"}
{"MOLECULE": "CN(C)CCc1c[nH]c2ccccc12 [Example 4]", "VALUE_REPORTED": "+/+/+"}

Record Physical properties (crystallinity, melt, enthalpy, polymorph tendency) per entry; entries follow.
1. CN(C)CCc1c[nH]c2ccccc12 [Example 9]
2. CN(C)CCc1c[nH]c2ccccc12 [Example 2]
3. CN(C)CCc1c[nH]c2ccccc12 [Example 7]
4. CN(C)CCc1c[nH]c2ccccc12 [Example 8]

Reply:
["−/−", "+/+/+", "−/−", "−/−"]
